experiment: Weight loss starting point (thermal analysis); type: physicochemical

# MOLECULE, Weight loss starting point [°C]
measured = [
    ("CCc1ccc2c3c(cccc13)C(=O)N(OS(=O)(=O)C(F)(F)F)C2=O [Compound No. 20]", 253),
    ("CCCCc1ccc2c3c(cccc13)C(=O)N(OS(=O)(=O)c1c(C(C)C)cc(C(C)C)cc1C(C)C)C2=O [Compound No. 7]", 267),
    ("CCCCC(CC)Cc1ccc2c3c(cccc13)C(=O)N(OS(=O)(=O)c1ccc(C)cc1)C2=O (centres unmarked) [Compound No. 38]", 304.9),
    ("CCCCc1ccc2c3c(cccc13)C(=O)N(OS(=O)(=O)c1ccc(C(F)(F)F)cc1)C2=O [Compound No. 35]", 302),
    ("CCCCc1ccc2c3c(cccc13)C(=O)N(OS(=O)(=O)c1ccc(C)cc1)C2=O [Compound No. 6]", 314.8),
    ("CCCCCCCCCCCCCCc1ccc2c3c(cccc13)C(=O)N(OS(=O)(=O)c1ccc(C)cc1)C2=O [Compound No. 40]", 301.8),
    ("CCCCc1ccc2c3c(cccc13)C(=O)N(OS(=O)(=O)C(F)(F)F)C2=O [Compound No. 4]", 250),
    ("CCCCc1ccc2c3c(cccc13)C(=O)N(OS(=O)(=O)CC13CCC(CC1=O)C3(C)C)C2=O (centres unmarked) [Compound No. 10]", 279),
]

###

Recorded measurements of Maximum absorption wavelength, one per entry
assay: UV absorption spectrum in acetonitrile; assay type: physicochemical; conditions: absorption in a range of 300 nm to 400 nm

# MOLECULE, Maximum absorption wavelength
rows = [
    ("CCCCc1ccc2c3c(cccc13)C(=O)N(OS(=O)(=O)c1ccc(C(F)(F)F)cc1)C2=O", "345.0 nm"),
    ("CCCCc1ccc2c3c(cccc13)C(=O)N(OS(=O)(=O)c1c(C(C)C)cc(C(C)C)cc1C(C)C)C2=O", "344 nm"),
    ("CC1(C)C2CCC1(CS(=O)(=O)ON1C(=O)c3cccc4cccc(c34)C1=O)C(=O)C2 (stereo not shown) [Comparative Compound 1, reference compound]", "335 nm"),
    ("CCCCc1ccc2c3c(cccc13)C(=O)N(OS(=O)(=O)c1ccc(C)cc1)C2=O", "343.5 nm"),
]

###

experiment: UV absorption spectrum in acetonitrile; assay type: physicochemical; settings: second line of the cell
Recorded measurements of ε at maximum absorption wavelength (molar extinction coefficient), one per entry
OBSERVABLE: ε at maximum absorption wavelength (molar extinction coefficient)

# MOLECULE, READOUT_VALUE
rows = [
    ("CCCCC(CC)Cc1ccc2c3c(cccc13)C(=O)N(OS(=O)(=O)c1ccc(C)cc1)C2=O (stereo not shown)", "1.76 × 10^4"),
    ("CCCCc1ccc2c3c(cccc13)C(=O)N(OS(=O)(=O)c1ccc(C)cc1)C2=O", "1.67 × 10^4"),
    ("CCCCc1ccc2c3c(cccc13)C(=O)N(OS(=O)(=O)CC13CCC(CC1=O)C3(C)C)C2=O (stereo not shown)", "1.68 × 10^4"),
    ("CCCCc1ccc2c3c(cccc13)C(=O)N(OS(=O)(=O)C(F)(F)F)C2=O", "1.65 × 10^4"),
]

###

assay: UV absorption spectrum in acetonitrile; type: physicochemical; details: absorption in a range of 300 nm to 400 nm

# COMPOUND, Maximum absorption wavelength [nm]
rows = [
    ("CCCCc1ccc2c3c(cccc13)C(=O)N(OS(=O)(=O)CC13CCC(CC1=O)C3(C)C)C2=O (centres unmarked)", 346),
    ("CCCCc1ccc2c3c(cccc13)C(=O)N(OS(=O)(=O)C(F)(F)F)C2=O", 346),
    ("CCCCCCCCCCCCCCc1ccc2c3c(cccc13)C(=O)N(OS(=O)(=O)c1ccc(C)cc1)C2=O", 344.5),
    ("CCCCC(CC)Cc1ccc2c3c(cccc13)C(=O)N(OS(=O)(=O)c1ccc(C)cc1)C2=O (centres unmarked)", 345),
    ("CCc1ccc2c3c(cccc13)C(=O)N(OS(=O)(=O)C(F)(F)F)C2=O", 344),
]

###

Test: UV absorption spectrum in acetonitrile
Format: physicochemical
Conditions: second line of the cell
Description: Compound Nos. 4, 5, 7, 10, 20, 6, 35, 38 and 40 and Comparative Compound 1 represented by the Formula below were each dissolved in acetonitrile, and their absorption spectra were measured using a […] U-3010 to determine the values of ?max and (molar extinction coefficient) for absorption in a range of 300 nm to 400 nm as well as the value of ε at 365 nm. […]
Recorded measurements of ε at maximum absorption wavelength (molar extinction coefficient), one per entry
OBSERVABLE: ε at maximum absorption wavelength (molar extinction coefficient)

# COMPOUND, READOUT_VALUE
records = [
    ("CCCCCCCCCCCCCCc1ccc2c3c(cccc13)C(=O)N(OS(=O)(=O)c1ccc(C)cc1)C2=O [Compound No. 40]", "1.68 × 10^4"),
    ("CCc1ccc2c3c(cccc13)C(=O)N(OS(=O)(=O)C(F)(F)F)C2=O [Compound No. 20]", "1.64 × 10^4"),
    ("CC1(C)C2CCC1(CS(=O)(=O)ON1C(=O)c3cccc4cccc(c34)C1=O)C(=O)C2 (centres unmarked) [Comparative Compound 1, reference compound]", "1.34 × 10^4"),
    ("CCCCc1ccc2c3c(cccc13)C(=O)N(OS(=O)(=O)c1ccc(C(F)(F)F)cc1)C2=O [Compound No. 35]", "1.68 × 10^4"),
    ("CCCCc1ccc2c3c(cccc13)C(=O)N(OS(=O)(=O)c1c(C(C)C)cc(C(C)C)cc1C(C)C)C2=O [Compound No. 7]", "1.65 × 10^4"),
]

###

Recorded measurements of melting point, one per entry

# COMPOUND, melting point
records = [
    ("CCCCc1ccc2c3c(cccc13)C(=O)N(OS(=O)(=O)CC13CCC(CC1=O)C3(C)C)C2=O (centres unmarked)", "134 °C"),
    ("CCCCc1ccc2c3c(cccc13)C(=O)N(OS(=O)(=O)C(F)(F)F)C2=O", "110 °C"),
    ("CCCCCCCCCCCCCCc1ccc2c3c(cccc13)C(=O)N(OS(=O)(=O)c1ccc(C)cc1)C2=O", "95.5 °C"),
    ("CCCCC(CC)Cc1ccc2c3c(cccc13)C(=O)N(OS(=O)(=O)c1ccc(C)cc1)C2=O (centres unmarked)", "129.6 °C"),
    ("CCc1ccc2c3c(cccc13)C(=O)N(OS(=O)(=O)C(F)(F)F)C2=O", "145 °C"),
    ("CCCCc1ccc2c3c(cccc13)C(=O)N(OS(=O)(=O)c1c(C(C)C)cc(C(C)C)cc1C(C)C)C2=O", "131 °C"),
    ("CCCCc1ccc2c3c(cccc13)C(=O)N(OS(=O)(=O)c1ccc(C(F)(F)F)cc1)C2=O", "192 °C"),
    ("CCCCc1ccc2c3c(cccc13)C(=O)N(OS(=O)(=O)c1ccc(C)cc1)C2=O", "145.1 °C"),
]

###

Test: Solubility to propylene glycol monomethyl ether acetate at 25° C.
Format: physicochemical
Conditions: propylene glycol monomethyl ether acetate, 25° C.; concentration at which no compound was left undissolved
Procedure: Compound Nos. 4, 5, 7, 10, 20, 6, 35, 38 and 40 and Comparative Compound 1 represented by the Formula below were each dissolved in acetonitrile, and their absorption spectra were measured using a […] U-3010 to determine the values of ?max and (molar extinction coefficient) for absorption in a range of 300 nm to 400 nm as well as the value of ε at 365 nm. […]
Classify: yes (1) when Solubility is strictly less than 2 % by mass; no (0) when Solubility is not.

# COMPOUND, ASSIGNED_LABEL
data = [
    ("CCCCCCCCCCCCCCc1ccc2c3c(cccc13)C(=O)N(OS(=O)(=O)c1ccc(C)cc1)C2=O", "yes (1)"),
    ("CCCCc1ccc2c3c(cccc13)C(=O)N(OS(=O)(=O)c1ccc(C)cc1)C2=O", "no (0)"),
    ("CCCCc1ccc2c3c(cccc13)C(=O)N(OS(=O)(=O)c1c(C(C)C)cc(C(C)C)cc1C(C)C)C2=O", "no (0)"),
    ("CCCCc1ccc2c3c(cccc13)C(=O)N(OS(=O)(=O)CC13CCC(CC1=O)C3(C)C)C2=O (stereo not drawn)", "no (0)"),
    ("CCc1ccc2c3c(cccc13)C(=O)N(OS(=O)(=O)C(F)(F)F)C2=O", "no (0)"),
    ("CCCCC(CC)Cc1ccc2c3c(cccc13)C(=O)N(OS(=O)(=O)c1ccc(C)cc1)C2=O (stereo not drawn)", "yes (1)"),
    ("CCCCc1ccc2c3c(cccc13)C(=O)N(OS(=O)(=O)C(F)(F)F)C2=O", "no (0)"),
]

Entry source: patent US20150315153A1
